Where these numbers come from: the supplement of paper PMC12045047

Tested on: primary human airway basal cells (HBEC, luciferase-transduced)
experimentDescription: proliferation (luciferase bioluminescence) Z score relative to plate mean; higher = more proliferation / more cells, active = 1.96 or more
conditionInfo: donor: 1; 5 µM; library: ENZO Libraries; 4 days
Structures can show the parent of a compound that is named as a salt.
Binary classification by proliferation, with -0.2 as an inclusive lower bound for criterion met; all other cases are criterion not met.

-- ask Hello, I need to know if CNC(=O)[C@H](Cc1c[nH]c2ccccc12)NC(=O)[C@@H](CC(=O)NO)CC(C)C has measured proliferation not below -0.2. Thanks!
-- reply criterion not met

-- ask Exam item: decide whether the reported proliferation for CCCC(CCC)C(=O)NO [Valproic acid hydroxamate] is at least -0.2.
-- reply criterion met

-- ask Say whether CC1CNc2c(cccc2S(=O)(=O)N[C@@H](CCCNC(=N)N)C(=O)N2CC[C@@H](C)C[C@@H]2C(=O)O)C1 (stereo partly specified) shows proliferation of -0.2 or more.
-- reply criterion met

-- ask Quick check, proliferation >= -0.2? CC1(C)C[C@@H]1C(=O)N/C(=C\CCCCSC[C@H](N)C(=O)O)C(=O)O
-- reply criterion met

-- ask Tell me whether proliferation is at least -0.2 here: CCCC[C@@H](C=O)NC(=O)OC(C)(C)C
-- reply criterion met

-- ask State whether the measured proliferation reaches -0.2, counting equality as reaching it, for CC(C)C(=O)SCCCCCCC(=O)Nc1nc(-c2ccccc2)cs1
-- reply criterion met

-- ask Quick check, proliferation >= -0.2? Cc1cc2ncc(-c3ccccc3)nc2cc1C
-- reply criterion met

-- ask Decide: proliferation of C=CC(=O)c1ccc2ccccc2c1 >= -0.2?
-- reply criterion not met

-- ask Hello, I need to know if CC[C@H](C)[C@H](N)C(=O)N1CCSC1 [P32/98 hemifumarate salt] has measured proliferation not below -0.2. Thanks!
-- reply criterion not met

-- ask Identify whether the reported proliferation of the following compound is -0.2 or greater: O=C(O)c1ccnc(C(=O)O)c1
-- reply criterion met

-- ask Say whether O=C(CCCN1C(=O)c2cccc3cccc(c23)C1=O)NO shows proliferation of -0.2 or more.
-- reply criterion met
